B1: STX5 (parent)
chain: ESTIVELGSIFQQLAHMVKEQEET

- Variants of: B1
- assay-notes: protein stability index of a GFP-peptide fusion (GPS, HEK-293T) (PSI 1-6); higher = more stable;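 further: lentivirally expressed fusions sorted by FACS into six bins by GFP to DsRed ratio, PSI derived from sequencing read proportions per bin multiplied by bin number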
- test-parameters: c terminus: a fixed tail appended
Quick rule for you: protein stability index at 2 or higher means YES, lower means NO.

ESTIVELGSIFQQLAQMVKEQEET [H16Q] ... NO
ESTIVELGSIFQHLAHMVKEQEET [Q13H] ... YES
ESTIVEMGSIFQQLAHMVKEQEET [L7M] ... YES
ESTIDELGSIFQQLAHMVKEQEET [V5D] ... YES
ESTIVELGSNFQQLAHMVKEQEET [I10N] ... YES
KSTIVELGSIFQQLAHMVKEQEET [E1K] ... NO

# evaluate next
Prompt: Does protein stability index meet or surpass 2 for ESTIVILGSIFQQLAHMVKEQEET [E6I] ?
Response: YES
